- assay.target: UniProt P14600
- Sequence (P14600 whole entry): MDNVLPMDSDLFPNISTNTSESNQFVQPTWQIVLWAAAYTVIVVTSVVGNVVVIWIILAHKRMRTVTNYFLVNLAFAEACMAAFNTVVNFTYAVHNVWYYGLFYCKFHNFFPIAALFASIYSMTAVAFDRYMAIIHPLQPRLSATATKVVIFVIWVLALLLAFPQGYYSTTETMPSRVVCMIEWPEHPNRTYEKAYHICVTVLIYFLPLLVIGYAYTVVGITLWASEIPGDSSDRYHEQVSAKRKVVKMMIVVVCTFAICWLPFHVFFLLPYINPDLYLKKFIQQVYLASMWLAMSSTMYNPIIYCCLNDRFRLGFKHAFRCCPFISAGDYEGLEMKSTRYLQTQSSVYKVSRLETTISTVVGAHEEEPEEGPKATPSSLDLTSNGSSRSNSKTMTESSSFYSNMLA
- assay.remarks: Concentration required to inhibit the specific binding of [125I]BH-SP to Neurokinin-1 (NK-1) receptor in rat brain synaptosomes
Starred links: 1 amine or outer side, 2 acyl side, 3 side chain; linkers in the order of their positions; H or OH if unused. Non-standard residues stand in square brackets, D forms with d. Residues, ends and D or L forms follow the SMILES beside them. Gly(9-fluorenyl) = N[C@H](C(=O)O)C1c2ccccc2-c2ccccc21; X1 = O=C([C@@H](N[*:1])C1CCc2ccccc21)[*:2]
The compounds listed here are annotated with their IC50.
# output: bare number, implied unit nM

[
  {
    "compound": "CSCC[C@H](NC(=O)[C@H](CC(C)C)NC(=O)CNC(=O)[C@@H](NC(=O)[C@H](Cc1ccccc1)NC(=O)[C@H](CCC(N)=O)NC(=O)[C@H](CCC(N)=O)NC(=O)[C@@H]1CCCN1C(=O)[C@H](CCCCN)NC(=O)[C@@H]1CCCN1C(=O)[C@@H](N)CCCNC(=N)N)[C@H]1CCc2cc3ccccc3cc21)C(N)=O",
    "IC50 [nM]": 0.6
  },
  {
    "compound": "CSCC[C@H](NC(=O)[C@H](CC(C)C)NC(=O)CNC(=O)[C@@H](NC(=O)[C@@H](NC(=O)[C@H](CCC(N)=O)NC(=O)[C@H](CCC(N)=O)NC(=O)[C@@H]1CCCN1C(=O)[C@H](CCCCN)NC(=O)[C@@H]1CCCN1C(=O)[C@@H](N)CCCN=C(N)N)C1CCc2ccccc21)C1c2ccccc2-c2ccccc21)C(N)=O (some centres not stated) (H-RPKPQQ[X1][Gly(9-fluorenyl)]GLM-NH2)",
    "IC50 [nM]": 29
  },
  {
    "compound": "CSCC[C@H](NC(=O)[C@H](CC(C)C)NC(=O)CNC(=O)[C@H](Cc1ccccc1)NC(=O)[C@@H](NC(=O)[C@H](CCC(N)=O)NC(=O)[C@H](CCC(N)=O)NC(=O)[C@@H]1CCCN1C(=O)[C@H](CCCCN)NC(=O)[C@@H]1CCCN1C(=O)[C@@H](N)CCCN=C(N)N)[C@@H]1CCc2ccccc21)C(N)=O",
    "IC50 [nM]": 54
  },
  {
    "compound": "CSCC[C@H](NC(=O)[C@H](CC(C)C)NC(=O)CNC(=O)[C@H](Cc1ccccc1)NC(=O)[C@@H](NC(=O)[C@H](CCC(N)=O)NC(=O)[C@H](CCC(N)=O)NC(=O)[C@@H]1CCCN1C(=O)[C@H](CCCCN)NC(=O)[C@@H]1CCCN1C(=O)[C@@H](N)CCCN=C(N)N)[C@H]1CCc2ccccc21)C(N)=O",
    "IC50 [nM]": 3.1
  },
  {
    "compound": "CSCC[C@H](NC(=O)[C@H](CC(C)C)NC(=O)CNC(=O)[C@@H](NC(=O)[C@H](Cc1ccccc1)NC(=O)[C@H](CCC(N)=O)NC(=O)[C@H](CCC(N)=O)NC(=O)[C@@H]1CCCN1C(=O)[C@H](CCCCN)NC(=O)[C@@H]1CCCN1C(=O)[C@@H](N)CCCNC(=N)N)C1c2ccccc2-c2ccccc21)C(N)=O",
    "IC50 [nM]": 2.5
  },
  {
    "compound": "CSCC[C@H](NC(=O)[C@H](CC(C)C)NC(=O)CNC(=O)[C@H](Cc1ccccc1)NC(=O)[C@@H](NC(=O)[C@H](CCC(N)=O)NC(=O)[C@H](CCC(N)=O)NC(=O)[C@@H]1CCCN1C(=O)[C@H](CCCCN)NC(=O)[C@@H]1CCCN1C(=O)[C@@H](N)CCCN=C(N)N)C1c2ccccc2-c2ccccc21)C(N)=O",
    "IC50 [nM]": 1400
  }
]

Test item "CSCC[C@H](NC(=O)[C@H](CC(C)C)NC(=O)CNC(=O)[C@@H](NC(=O)[C@H](Cc1ccccc1)NC(=O)[C@H](CCC(N)=O)NC(=O)[C@H](CCC(N)=O)NC(=O)[C@@H]1CCCN1C(=O)[C@H](CCCCN)NC(=O)[C@@H]1CCCN1C(=O)[C@@H](N)CCCNC(=N)N)C(c1ccccc1)c1ccccc1)C(N)=O" ; UniProt P14600; reported IC50 was 500

Measured values drawn from ChEMBL document CHEMBL1127523 for this set.
